Consider the following IC50 data for Nonstructural protein 5 (Dengue virus, UniProt V5TFZ2), collected from several reports.
Field: numeric (µM). Do not append units.

Find IC50 (Nonstructural protein 5 (Dengue virus, UniProt V5TFZ2)) for the entry C#C[C@]1(O)[C@H](n2ccc(=O)[nH]c2=O)O[C@](F)(COP(=O)(O)OP(=O)(O)OP(=O)(O)O)[C@H]1O
0.65

Can you check C#C[C@@]1(O)[C@H](O)[C@@H](COP(=O)(O)OP(=O)(O)OP(=O)(O)O)O[C@H]1n1ccc(=O)[nH]c1=O next?
1.6

What do you get for C#C[C@@]1(F)[C@H](O)[C@@H](COP(=O)(O)OP(=O)(O)OP(=O)(O)O)O[C@H]1n1ccc(=O)[nH]c1=O ?
15.9

What about this molecule? Nc1cc(C(F)(F)F)ccc1NC(=O)Nc1cccc(S(=O)(=O)Nc2ccc(C(=O)O)cc2)c1
91

Moving on to CC#C[C@]1(O)[C@H](n2ccc(=O)[nH]c2=O)O[C@](F)(COP(=O)(O)OP(=O)(O)OP(=O)(O)O)[C@H]1O
2.8

Field entry: Nc1cc(C(F)(F)F)ccc1NC(=O)Nc1cccc(S(=O)(=O)Nc2ccc(CC(=O)O)cc2)c1
144

Proceed to Nc1ncnc2c1ncn2[C@@H]1O[C@H](CSCC[C@H](N)C(=O)O)[C@@H](O)[C@H]1O
0.49

Same again, this time with CN1CCC(CNS(=O)(=O)c2ccc(NC(=O)Nc3ccc(C(F)(F)F)cc3N)cc2)C1 (stereo not drawn)
400

What do we get for C[C@@]1(F)[C@H](O)[C@@H](COP(=O)(O)OP(=O)(O)OP(=O)(O)O)O[C@H]1n1ccc(=O)[nH]c1=O ?
18

Continue with Nc1cc(Cl)ccc1NC(=O)Nc1cccc(S(=O)(=O)Oc2ccc(C(=O)O)cc2)c1
369

And for Nc1ncnc2c1ncn2[C@@H]1O[C@H](C[C@@H](N)CC[C@H](N)C(=O)O)[C@@H](O)[C@H]1O ?
0.041

Try the molecule COC(=O)CCCNS(=O)(=O)c1cccc(NC(=O)Nc2ccc(C(F)(F)F)cc2[N+](=O)[O-])c1
400

Then Nc1cc(Cl)ccc1NC(=O)Nc1ccc(S(=O)(=O)Nc2ccc(C(=O)O)cc2)cc1 ?
435
